Assay: GDH-TPI coupling enzyme inhibitors, primary screen, artefact control for M. tuberculosis FBA inhibitor project, biochemical, absorbance, full deck (AID 588335);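 note: 0% = DMSO wells and 100% = wells lacking the enzyme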
Conditions: GDH-TPI coupled enzyme counterscreen, NADH absorbance; at 4.8 µM
Screen size: about 360,000 compounds; about 4,500 (1.2%) were called active. Cut-off read from the data, not from the text of the source: active = inhibition above about 30%; inactive = the rest. Many of the other results were omitted from the sample, so actives are more common in it than they were.
Your answer must be one of the following: active, inactive

Which outcome did this test record for the compound O=C(Cc1ccccc1)Nc1ccc(NC(=O)c2cccnc2)cc1 ? inactive

What did the test return for C/C(=C\C(=O)c1cccnc1)Nc1ccc(C)c(C)c1 ? active

What is the recorded call for this compound in the test? O=C(NCc1nnc(SCC(=O)N2CCCc3ccccc32)o1)c1ccccc1F inactive

Entry O=C(Nc1cnccn1)c1cccnc1 : call = ? inactive

Give the logged outcome of this assay for the following compound: O=C1NC(=O)C(CCc2ccccc2)(c2ccccc2)N1 (stereo not given) inactive

Recorded call for Cc1cc(OCCCC(=O)NCCN2C(=O)S/C(=C\c3cccnc3)C2=O)ccc1Cl ? inactive

What classification did COc1ccc(/C=C2\SC(=O)N(CCC(=O)NCCCn3ccnc3)C2=O)cc1 end up with in this test? active

Tell me the recorded outcome of this test for Cc1ccccc1N1CC(c2nc3ccccc3[nH]2)CC1=O (stereo not given) . inactive

Recorded call for C=CCn1c(=NC(=O)c2cccs2)sc2cc(NC(C)=O)ccc21 ? active

Recorded call for Nc1ncnc(Nc2cccc(Cl)c2Cl)n1 ? inactive

---

Assay: GDH-TPI coupling enzyme inhibitors, primary screen, artefact control for M. tuberculosis FBA inhibitor project, biochemical, absorbance, full deck (AID 588335);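 note: 0% = DMSO wells and 100% = wells lacking the enzyme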
Settings: GDH-TPI coupled enzyme counterscreen, NADH absorbance; at 4.8 µM
About 4,500 (1.2%) of roughly 360,000 compounds were called active. No stated cut-off is given here; in the data, active means inhibition above about 30%; inactive means the rest. Only a selection was taken, and actives are over-represented in it overall.
Could you please pick one outcome from this set? active, inactive

What is the recorded call for this compound in the test? O=C(c1ccc(Cn2cc([N+](=O)[O-])cn2)o1)N1CCCC1 inactive

Name the outcome recorded for Cc1ccc(NC(=O)c2ccc(Oc3ncccn3)cc2)cc1 in the assay. inactive

Any idea what this test logged for CCn1nc(NC(=O)c2ccco2)c2cc3ccc(C)cc3nc21 ? inactive

Could you check what this test reported for Cc1cccc(C(C)C)c1NC(=O)COC(=O)C1CC(=O)N(Cc2ccccc2)C1 (centres undefined) ? inactive

What was the test verdict on Cn1c2ccccc2c2cc(/C=C(\NC(=O)c3ccccc3)C(=O)NCC(=O)O)ccc21 ? active

Query: recorded result category for Cc1c(NC(=O)C(=O)N/N=C/c2cccs2)c(=O)n(-c2ccccc2)n1C in this test inactive

For CN(C)c1ccc(/C=N/NC(=O)C(O)c2ccc(Br)cc2)cc1 (centres undefined) , which call appears in the assay record? inactive

Recorded call for Cc1ccccc1CCNC(=O)C1CCC(=O)N(Cc2ccc(Cl)cc2)C1 (centres undefined) ? inactive

For O=c1[nH]c2c(c(=O)n1-c1ccccc1)CCO2 , what call appears in the results of this test? inactive

Answer briefly: the call reported for CN(C(=O)CCn1c(=S)oc2ccccc21)C1CCCCC1 in this assay. inactive

Any idea what this test logged for Cc1ccc(C(=O)NNc2ncnc3ccccc23)cc1 ? active

Check the results log: what was the call for O=C1NC(c2ccccc2)=NC1(Nc1ccccn1)C(F)(F)F (centres undefined) ? inactive

Please indicate how the test categorized Cc1cc(NC(=O)/C=C/C(=O)N(c2ccccc2C)C(C(=O)NC2CCCC2)c2ccc(F)cc2)no1 (centres undefined) . inactive

Hey, what did the test say about COc1cccc(NC(=O)COC(=O)/C=C/c2ccco2)c1 ? inactive

Name the outcome recorded for CC1C=CCC2C(=O)N(c3cccc(C(=O)N4CCCCCC4)c3)C(=O)C12 (centres undefined) in the assay. inactive

Hi team, can someone confirm the assay call for COc1ccc(CN2CCCC(C(=O)N3CCCCC3)C2)cc1 (centres undefined) ? inactive

Which result was noted for this compound in the test: O=C(N/N=C/c1ccc2c(c1)OCO2)c1ccc(Cn2cc([N+](=O)[O-])cn2)o1 active

Recorded test call requested for Cc1ccccc1-n1cc(CNC(=O)CC2C(=O)NCCN2C/C=C/c2ccccc2)cn1 (centres undefined) inactive

Hey, what did the test say about CCCC(=O)N1CCC(CCC(=O)NC2CC2)CC1 ? inactive

Record lookup: outcome of this test for Nc1cc(C(=O)N2CCN(c3ccccc3Cl)CC2)ccc1N1CC2CC(C1)c1cccc(=O)n1C2 (centres undefined) ? inactive

Which outcome did this test record for the compound CCOc1ccc(NC(=S)NC(=O)/C=C/c2ccc(OC)cc2)c([N+](=O)[O-])c1 ? inactive

For this compound, state the assay outcome: CC(=O)Nc1ccc(S(=O)(=O)Nc2nc3n(n2)C(c2ccccc2)CC(=O)N3)cc1 (centres undefined) inactive

# outcome recorded in this test, key = O=C(CSc1nc(-c2ccco2)cc(C(F)(F)F)n1)N1CCc2ccccc2C1 inactive

Give the logged outcome of this assay for the following compound: COc1ccc(Cl)cc1C(=O)NNC(=S)NC(=O)/C=C/c1ccco1 inactive

So what was the verdict on COc1ccc(C(=O)COC(=O)c2nn(C)c(=O)c3ccccc23)c(OC)c1 in this test? inactive

In this assay, the call recorded for Cc1cccc2nc(CNc3ccc(F)cc3)cn12 was what? inactive

Please state the recorded outcome for this compound: CCOC(=O)Cn1c(=O)n(Cc2ccc(OC)cc2)c(=O)c2cccnc21 inactive

// outcome(item) with item = O=C(Nc1cccc(F)c1)[C@@H]1CCCN1 inactive

Called result for CC(C)CN(C(=O)COC(=O)c1ccc2ccccc2c1)c1c(N)n(Cc2ccccc2)c(=O)[nH]c1=O inactive

Test call, this compound: O=C(/C=C/c1ccco1)NC(=S)Nc1ccccc1Br active

Record request — test call for Cc1ccc(C(=O)NNC(=O)c2cc3cc4ccccc4nc3s2)cc1 inactive

Hello, I am checking results. What call was entered for CCOC(=O)C=Cc1ccc(C(=O)OCC)[nH]1 ? active

Which outcome was assigned to Cc1ccc(Cn2c(NC(=O)c3ccco3)nc3ccccc32)cc1 in this test? active

Tell me the assay call for CSCC[C@H](NC(=O)OC(C)(C)C)C(=O)N/N=C/c1cc2ccc(C)cc2nc1Cl please. inactive

---

Experiment: GDH-TPI coupling enzyme inhibitors, primary screen, artefact control for M. tuberculosis FBA inhibitor project, biochemical, absorbance, full deck (AID 588335);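 note: 0% = DMSO wells and 100% = wells lacking the enzyme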
Conditions: GDH-TPI coupled enzyme counterscreen, NADH absorbance; at 4.8 µM; stronger effect = higher value
Hit rate of the full screen: of about 360,000 compounds, about 4,500 (1.2%) were called active. The entries come from a sample that favours actives as a whole.
Can you tell me inhibition for the items I'm about to list?
The reply should contain only the number, in %.

Bench note: what inhibition did COc1ccc(C(=O)/C=C/c2ccc(-c3ccccc3)cc2)cc1CSCC(=O)O show? 37.5

Look up inhibition for this compound: CC1(C)CC(=O)C=C(NCc2ccncc2)C1 0.7

Form field: reported inhibition of Cc1ccc(C(=O)NCC(c2cccs2)N(C)C)cc1S(=O)(=O)N1CCOCC1 (stereo unspecified) 3.9

Which inhibition reading was recorded for the compound O=C(OCCN1C(=O)c2ccccc2C1=O)[C@@H]1CC(O)CN1S(=O)(=O)c1ccccc1[N+](=O)[O-] (stereo partly specified) ? 3.16

Consider the compound CCC(=O)Nc1c(S(=O)(=O)c2ccccc2)c2nc3ccccc3nc2n1Cc1ccccc1 and give its measured inhibition. 27

Could you share which inhibition value was measured for CCO[C@@H]1OC(C(N)=O)=C[C@H](c2ccc(Br)cc2)[C@H]1CCCO ? -4.48

// returns reported inhibition for input CC1(C)CC(=O)c2sc(N)nc2C1 20.2

Name the reported inhibition value associated with the compound O=C(Nc1ccccc1C(=O)O)c1cc(S(=O)(=O)N2CCCCC2)cs1 -4.43

Name the recorded inhibition for CCOc1ccc2[nH]c(C(=O)N/N=C/c3cccc(OC)c3OC)cc2c1 . 42.1

Report inhibition for COc1cc(/C=N/NC(=O)c2cccnc2)ccc1OC(=O)c1cccc(Br)c1 please. 7.96

Look up inhibition for this compound: COc1cccc2[nH]c(C(=O)NCCc3ccccc3)cc12 2.15

What does the record list as inhibition for CCCn1nc(NS(=O)(=O)c2ccc(F)cc2)c2cc3ccccc3nc21 ? 6.9

For the compound CC(NC(=O)C(=O)N/N=C/c1ccc(Cl)cc1)c1ccccc1 (stereo unspecified) , what inhibition is on record? -6.35

inhibition for CC/C(=N\NC(=O)c1ccccc1Cl)c1ccc(Br)s1 ? 16.7

# get_value(readout='inhibition', item= O=C(NC(=S)Nc1cc(C(F)(F)F)ccc1N1CCOCC1)c1ccc(-c2cccc(Cl)c2)o1 ) -2.21

Which inhibition is reported for this compound? CC(C)[C@H](NC(=O)c1ccccc1F)C(=O)Nc1cccc(S(=O)(=O)N2CCOCC2)c1 -3.11

Can you look up the measured inhibition of O=C(CN1C(=O)NC2(CCCC2)C1=O)OCCOc1ccc(F)cc1 for me? -5.15

Which inhibition value belongs to NC(=O)CSc1nnc(NC(=O)c2ccc(Br)o2)s1 ? 32.8

Entry O=c1cccc(-c2ccc(Br)cc2)o1 : reported inhibition = ? 17.6

Reported inhibition for CCOC(=O)/C=c1\s/c(=C\c2ccccc2OC)c(=O)n1CC(=O)N1CCOCC1 : what is it? 33.3

What measured inhibition goes with CCN(CC)CCn1c(N)c(S(=O)(=O)c2ccccc2)c2nc3ccccc3nc21 ? 31

Report inhibition for O=C(O)CCn1c(O)c(C=C2N=c3ccccc3=N2)sc1=S please. 22.8

// inhibition lookup, key: O=C(COC(=O)/C=C/c1cn(-c2ccccc2)nc1-c1cccnc1)Nc1ccc(Cl)cc1Cl -1.11

Entry COC(=O)CSc1nnc(NC(=O)CCc2ccccc2)s1 : reported inhibition = ? 3.45

Sample COc1ccccc1CCNC(=O)C1CCN(C(=O)/C=C/c2ccccc2)CC1 — what was its inhibition? 1.82

Query: inhibition; subject: C=CCNC(=O)COc1coc(CN2CCN(Cc3ccccc3)CC2)cc1=O -4.97

Which inhibition value belongs to Cc1ccc(S(=O)(=O)N2CCOCC2)cc1C(=O)OC1CCCCC1=O (stereo unspecified) ? -12.1

Any idea what inhibition was measured for N=c1ccccn1Cc1ccccc1 ? -9.4

# inhibition lookup, item COc1ccc(CCNC(=O)COC(=O)Cc2cccc(F)c2)cc1 -8.97

State the recorded inhibition for this entry: O=C(O)CCn1cc(/C=C/C(=O)c2ccc(Cl)cc2)c(-c2cccc(Br)c2)n1 43.8

Form field: reported inhibition of CN(C(=O)CN1C(=O)S/C(=C\c2ccccc2F)C1=O)C1CCS(=O)(=O)C1 (stereo unspecified) 9.17

Dear colleague, I am looking for the recorded inhibition of the following compound: O=C(c1ccco1)N1CCN(Cc2cccc(C(F)(F)F)c2)CC1 -0.77

Suppose we examine the compound COc1ccc(CC2c3cc(OC)c(OC)cc3CC[N+]2(C)CCC(=O)OCCCCCOC(=O)CC[N+]2(C)CCc3cc(OC)c(OC)cc3C2Cc2ccc(OC)c(OC)c2)cc1OC (stereo unspecified) ; what inhibition value has been reported? -11.1

Bench note: what inhibition did Cn1c(=O)n(C)c2cc(/C=N/NC(=O)c3cccc(Br)c3)ccc21 show? 31.9

Bench note: what inhibition did CC(C)(C)NC(=O)CSc1nnc(NC(=O)CCc2ccccc2)s1 show? 4.27

Any idea what inhibition was measured for CCOc1ccc2[nH]c(=O)c(CN(CCCO)C(C)=O)cc2c1 ? 10.1
